# targetUnderTest: T1, Cynomolgus TCR(AEA41865/AEA41866)-zipper protein (cynomolgus monkey)
# T1 construct: also called cyTCR-zipper protein; cynoTCR zipper
# T1 TCR alpha: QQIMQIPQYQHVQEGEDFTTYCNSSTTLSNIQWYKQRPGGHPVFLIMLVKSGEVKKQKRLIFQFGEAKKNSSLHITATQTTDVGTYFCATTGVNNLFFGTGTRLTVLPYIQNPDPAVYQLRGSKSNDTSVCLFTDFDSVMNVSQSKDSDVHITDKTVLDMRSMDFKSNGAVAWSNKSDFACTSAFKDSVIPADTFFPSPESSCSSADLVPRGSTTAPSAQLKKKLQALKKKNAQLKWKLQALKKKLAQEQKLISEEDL
# T1 TCR beta: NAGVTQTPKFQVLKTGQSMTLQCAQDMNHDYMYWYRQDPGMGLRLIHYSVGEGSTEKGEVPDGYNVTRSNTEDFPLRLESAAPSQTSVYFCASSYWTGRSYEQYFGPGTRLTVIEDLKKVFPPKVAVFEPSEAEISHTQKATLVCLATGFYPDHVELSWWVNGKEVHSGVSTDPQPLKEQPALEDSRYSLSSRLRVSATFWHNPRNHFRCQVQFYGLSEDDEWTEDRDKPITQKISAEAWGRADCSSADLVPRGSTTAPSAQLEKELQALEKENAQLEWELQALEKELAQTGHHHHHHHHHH
# testMethodNotes: SPR ProteOn off-rate screen
// returns Not met unless koff is strictly below 0.001 s⁻¹, in which case Met

Confirm or reject: koff of T017000398 (VHH) VHH: EVQLVESGGGVVQPGGSLRLSCVASYDVHQINFYGWYRQAPGKEREKVAHISIGDQTDYADSAKGRFTISRDESKNMVYLQMNSLRPEDTALYFCRAMSRIWPYDYWGQGTLVTVSS lies strictly below 0.001 s⁻¹
Not met

Determine whether this binder shows koff lower than 0.001 s⁻¹ (ties excluded): T017000397 (VHH) VHH: EVQLVESGGGVVQPGGSLRLSCVASGSVHQLNFLGWYRQAPGKEREKVAHISIGDQTDYADSAKGRFTISRDESKNMVYLQMNSLRPEDTALYFCRAMSRIWPYDYWGQGTLVTVSS
Not met

API: query returns whether the binder falls strictly under 0.001 s⁻¹ in koff. Query: T017000386 (VHH) VHH: EVQLVESGGGVVQPGGSLRLSCVASGSVHKLNFLGWYRQAPGKEREKVAHISIGDQTDYADSAKGRFTISRDESKNMVYLQMNSLRPEDTALYFCRAFSRIWPYDWWGQGTLVTVSS
Not met

Find out if reported koff for T017000384 (VHH) VHH: EVQLVESGGGVVQPGGSLRLSCVASGAVHQLNFYGWYRQAPGKEREKVAHISIGDQTDYADSAKGRFTISRDESKNMVYLQMNSLRPEDTALYFCRAMSRIWPYDYWGQGTLVTVSS is less than 0.001 s⁻¹
Not met

Quick check: koff of T017000499 (VHH) VHH: EVQLVESGGGVVQPGGSLRLSCVASGYVHKLNFLGWYRQAPGKEREKVAHISIGDQTDYADSAKGRFTISRDESKNMVYLQMNSLRPEDTALYFCRAMSRIWPYDYWGQGTLVTVSS under 0.001 s⁻¹?
Not met

Below 0.001 s⁻¹ on koff? Entry T017000550 (VHH) VHH: EVQLVESGGGVVQPGGSLRLSCVASGSVHQINFLGWYRQAPGKEREKVAHISIGDQTDYADSAKGRFTISRDESKNMVYLQMNSLRPEDTALYFCRAMSRIYPYDWWGQGTLVTVSS
Not met

Record T017000410 (VHH) VHH: EVQLVESGGGVVQPGGSLRLSCVASGYVHKLNFYGWYRQAPGKEREKVAHISIGDQTDYADSAKGRFTISRDESKNMVYLQMNSLRPEDTALYFCRAFSRIWPYDWWGQGTLVTVSS : is its koff strictly below 0.001 s⁻¹?
Not met

Please determine if T017000378 (VHH) VHH: EVQLVESGGGVVQPGGSLRLSCVASWDVHKINFYGWYRQAPGKEREKVAHISIGDQTDYADSAKGRFTISRDESKNMVYLQMNSLRPEDTALYFCRAMSKIWPYDYWGQGTLVTVSS is below 0.001 s⁻¹ in terms of koff.
Met

Determine if T017000354 (VHH) VHH: EVQLVESGGGVVQPGGSLRLSCVASGAVHKINFYGWYRQAPGKEREKVAHISIGDQTDYADSAKGRFTISRDESKNMVYLQMNSLRPEDTALYFCRAMSRIWPYDYWGQGTLVTVSS shows koff strictly lower than 0.001 s⁻¹.
Met

Identify whether the binder T017000468 (VHH) VHH: EVQLVESGGGVVQPGGSLRLSCVASGSVHKINFYGWYRQAPGKEREKVAHISIGDQTDYADSAKGRFTISRDESKNMVYLQMNSLRPEDTALYFCRAFSRIWPYDYWGQGTLVTVSS records koff below 0.001 s⁻¹.
Not met

# TODO verify koff < 0.001 s⁻¹ strictly for this binder: T017000360 (VHH) VHH: EVQLVESGGGVVQPGGSLRLSCVASWSVHQLNFYGWYRQAPGKEREKVAHISIGDQTDYADSAKGRFTISRDESKNMVYLQMNSLRPEDTALYFCRAMSKIYPYDWWGQGTLVTVSS
Not met

# check: koff < 0.001 s⁻¹ for T017000774 (VHH) VHH: EVQLVESGGGVVQPGGSLRLSCVASGDVHQINFYGWYRQAPGKEREKVAHISIGDQTDYADSAKGRFTISRDESKNMVYLQMNSLRPEDTALYFCRAMSKIWPYDYWGQGTLVTVSS
Met

Input T017000612 (VHH) VHH: EVQLVESGGGVVQPGGSLRLSCVASGDVHQLNFLGWYRQAPGKEREKVAHISIGDQTDYADSAKGRFTISRDESKNMVYLQMNSLRPEDTALYFCRALSKIYPYDYWGQGTLVTVSS ; condition: koff strictly below 0.001 s⁻¹. Does it hold?
Not met

Take the binder T017000578 (VHH) VHH: EVQLVESGGGVVQPGGSLRLSCVASYDVHQLNFYGWYRQAPGKEREKVAHISIGDQTDYADSAKGRFTISRDESKNMVYLQMNSLRPEDTALYFCRAMSRIWPYDYWGQGTLVTVSS and say whether its koff is less than 0.001 s⁻¹.
Not met

Origin of values: patent US20240092919A1
